- system.under.test: T1, HerA (thermophilic archaeon, Sulfolobus …, UniProt Q97WG8 1-500)
- T1 sequence: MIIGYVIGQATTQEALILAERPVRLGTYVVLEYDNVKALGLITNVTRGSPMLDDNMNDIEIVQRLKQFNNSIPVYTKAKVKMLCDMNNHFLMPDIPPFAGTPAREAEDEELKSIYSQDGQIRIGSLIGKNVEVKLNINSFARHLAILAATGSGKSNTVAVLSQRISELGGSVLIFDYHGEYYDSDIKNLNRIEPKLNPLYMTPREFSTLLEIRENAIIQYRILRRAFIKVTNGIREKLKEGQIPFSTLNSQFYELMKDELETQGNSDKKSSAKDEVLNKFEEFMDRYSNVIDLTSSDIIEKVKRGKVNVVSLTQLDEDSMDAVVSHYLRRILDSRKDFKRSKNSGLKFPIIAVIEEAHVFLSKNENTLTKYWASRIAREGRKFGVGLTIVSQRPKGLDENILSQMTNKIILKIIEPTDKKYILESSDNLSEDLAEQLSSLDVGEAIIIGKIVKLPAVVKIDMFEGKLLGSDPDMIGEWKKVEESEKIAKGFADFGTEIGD
- procedure.summary: fluorescence anisotropy; 2 mM ATPgS, 5 mM MgCl2; HerA monomer concentration; FA: 5 nM dsDNA, 100 mM NaCl, 20 mM Hepes-NaOH pH 8.0, 30 min room temperature (with nucleotide: 2 mM plus 5 mM MgCl2); native MS: 200 mM ammonium acetate pH 7.0-7.5, 1:1 protein:DNA, 30 min room temperature
- test.settings: protein: recombinant; chain copies: 6; label: 5'-fluorescein on strand 1; blunt
assay.metric: Kd (µM)
# number only, unit µM dropped from output

Give recorded Kd. 5'-fluorescein 25 bp dsDNA (dsDNA) DNA 1: GTAGTCCGGACGACAAACGCCGACT DNA 2: AGTCGGCGTTTGTCGTCCGGACTAC
3.22
